B1: HDV Ribozyme (parent)
chain: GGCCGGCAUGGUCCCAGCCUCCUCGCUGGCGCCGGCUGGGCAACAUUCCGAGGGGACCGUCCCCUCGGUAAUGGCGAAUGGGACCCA

variants of: B1; test: self-cleavage, relative activity (ratio to wild type); higher = more cleavage; co-transcriptional
Category key, based on recorded self-cleavage: bucket A: < 0.1; bucket B: ≥ 0.1 and < 0.3; bucket C: ≥ 0.3

These solved cases illustrate the format of a correct answer.
Please report the category associated with C36G G38U , nothing else. bucket B

Form field 'band' for G80U C84G bucket C

Kindly state the category for this variant: G5C A45C bucket A

---
Any idea which band C32A U46C is in? bucket B

Class for G40C G81U ? bucket B

The entry to classify is C15U A43U ; which class holds it? bucket B

Please report the category associated with G39C C66U , nothing else. bucket B

Input C22G G52A ; output its category bucket B

Category of C3G A83U , please. bucket A
